# reported IC50; entries follow
# target-of-assay: PI3Kα (p110α/p85α) (Homo sapiens, UniProt P42336)
# Construct: GST (N)
# Sequence (P42336 whole entry): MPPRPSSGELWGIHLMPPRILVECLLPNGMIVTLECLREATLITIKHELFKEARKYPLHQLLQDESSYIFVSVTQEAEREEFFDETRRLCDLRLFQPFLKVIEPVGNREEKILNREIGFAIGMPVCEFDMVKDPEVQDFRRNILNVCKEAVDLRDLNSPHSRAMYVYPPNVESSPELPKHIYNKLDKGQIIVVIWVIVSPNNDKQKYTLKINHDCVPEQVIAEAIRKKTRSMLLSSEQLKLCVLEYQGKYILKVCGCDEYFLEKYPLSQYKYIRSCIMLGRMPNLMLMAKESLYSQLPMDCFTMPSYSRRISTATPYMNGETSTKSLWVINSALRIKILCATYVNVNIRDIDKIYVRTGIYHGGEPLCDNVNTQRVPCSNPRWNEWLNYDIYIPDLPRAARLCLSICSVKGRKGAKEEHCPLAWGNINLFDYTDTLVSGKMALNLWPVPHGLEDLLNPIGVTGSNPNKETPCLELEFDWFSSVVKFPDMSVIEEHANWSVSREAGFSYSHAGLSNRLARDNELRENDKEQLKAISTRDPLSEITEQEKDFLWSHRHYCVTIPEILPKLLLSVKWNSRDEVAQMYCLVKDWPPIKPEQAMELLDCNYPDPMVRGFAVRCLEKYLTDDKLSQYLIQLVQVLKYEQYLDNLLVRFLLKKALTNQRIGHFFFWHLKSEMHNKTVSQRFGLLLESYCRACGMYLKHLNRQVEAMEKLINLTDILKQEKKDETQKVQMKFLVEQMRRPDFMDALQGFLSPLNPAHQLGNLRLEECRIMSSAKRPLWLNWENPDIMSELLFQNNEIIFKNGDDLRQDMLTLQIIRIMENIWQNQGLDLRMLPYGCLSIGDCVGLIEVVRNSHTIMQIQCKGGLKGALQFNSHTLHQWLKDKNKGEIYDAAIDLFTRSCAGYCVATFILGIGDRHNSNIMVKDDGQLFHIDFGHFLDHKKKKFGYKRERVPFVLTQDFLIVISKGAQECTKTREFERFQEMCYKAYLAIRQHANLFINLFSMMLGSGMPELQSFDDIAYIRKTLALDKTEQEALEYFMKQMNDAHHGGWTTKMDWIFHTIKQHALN
# Sequence (P27986 whole entry partner): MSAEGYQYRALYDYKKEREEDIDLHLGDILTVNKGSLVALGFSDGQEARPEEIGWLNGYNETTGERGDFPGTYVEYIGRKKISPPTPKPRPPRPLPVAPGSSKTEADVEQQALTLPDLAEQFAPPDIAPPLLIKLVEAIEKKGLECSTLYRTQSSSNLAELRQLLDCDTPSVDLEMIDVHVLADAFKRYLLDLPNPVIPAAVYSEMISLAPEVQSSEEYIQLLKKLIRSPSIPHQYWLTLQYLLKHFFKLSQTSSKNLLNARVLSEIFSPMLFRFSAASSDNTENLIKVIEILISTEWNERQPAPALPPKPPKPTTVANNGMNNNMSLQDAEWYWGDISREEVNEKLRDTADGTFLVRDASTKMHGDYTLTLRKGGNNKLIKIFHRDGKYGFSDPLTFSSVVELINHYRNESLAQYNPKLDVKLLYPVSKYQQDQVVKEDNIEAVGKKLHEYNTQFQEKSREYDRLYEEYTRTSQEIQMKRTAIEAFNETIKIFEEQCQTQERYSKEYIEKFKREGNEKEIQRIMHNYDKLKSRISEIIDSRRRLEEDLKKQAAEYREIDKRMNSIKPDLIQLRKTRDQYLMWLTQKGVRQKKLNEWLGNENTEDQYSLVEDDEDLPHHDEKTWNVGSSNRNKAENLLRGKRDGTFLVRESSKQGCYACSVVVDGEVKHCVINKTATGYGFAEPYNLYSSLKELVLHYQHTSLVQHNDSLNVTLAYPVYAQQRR
# test-method-notes: PI3Kα ADP-Glo assay
# particulars: 20 μM PIP2, 10 μM ATP, 30 minutes

CNc1ncc(-c2nc(N3CCOCC3)c3sc(CN(C)c4ncc(C(=O)NO)cn4)cc3n2)cn1 [Compound 116] :: < 100 nM
CC(=O)c1ccc(F)c(-c2nc(N3CCOCC3)c3sc(CN(C)c4ncc(C(=O)NO)cn4)cc3n2)c1 [Compound 301] :: 1000 to 10000 nM
O=C(CCCCCNCc1cc2nc(-c3cccc4[nH]ncc34)nc(N3CCOCC3)c2s1)NO [Compound 43] :: 1000 to 10000 nM

Read the next record carefully.
*Q* Report value: IC50, system: PI3Kα (p110α/p85α) (Homo sapiens, UniProt P42336), molecule: CN(Cc1cc2nc(-c3c[nH]c4ccccc34)nc(N3CCOCC3)c2s1)c1ncc(C(=O)NO)cn1 [Compound 184]
*A* 1000 to 10000 nM

* * *

# target-of-assay: PI3Kα (p110α/p85α) (Homo sapiens, UniProt P42336)
# Construct: GST (N)
# test-method-notes: PI3Kα ADP-Glo assay
# particulars: 20 μM PIP2, 10 μM ATP, 30 minutes
pIC50: −log10 of the molar value.
experimental-readout: pIC50

Solved cases below.
CN(Cc1cc2nc(-c3ccc(N)c([N+](=O)[O-])c3)nc(N3CCOCC3)c2s1)c1ncc(C(=O)NO)cn1 :: > 7.00
CN(Cc1cc2nc(-c3cccc4[nH]ncc34)nc(N3CCOCC3)c2s1)c1ccc(/C=C/C(=O)NO)cc1 :: > 7.00
Cc1nc2ccc(-c3nc(N4CCOCC4)c4sc(CN(C)c5ncc(C(=O)NO)cn5)cc4n3)cc2[nH]1 :: > 7.00
CC(=O)NCc1ccc(-c2nc(N3CCOCC3)c3sc(CN(C)c4ncc(C(=O)NO)cn4)cc3n2)cc1 :: < 5.00

*Q* Report pIC50 for COc1ccc(-c2nc(N3CCOCC3)c3sc(NS(=O)(=O)c4cccc(/C=C/C(=O)NO)c4)cc3n2)cn1
*A* > 7.00

*Q* Report pIC50 for CC(C)OC(=O)Nc1ccc(-c2nc(N3CCOCC3)c3sc(CN(C)c4ncc(C(=O)NO)cn4)cc3n2)cc1
*A* < 5.00

*Q* Report pIC50 for CS(=O)(=O)N1CCN(Cc2cc3nc(-c4cccc5[nH]ncc45)nc(NCCCCC(=O)NO)c3s2)CC1
*A* < 5.00

* * *

# target-of-assay: mTor serine/threonine protein kinase (Homo sapiens)
# Construct: FLAG
# test-method-notes: mTor kinase radioisotope assay
# particulars: 70 uM ATP, 40 minutes; read-out: m-TOR IC50
experimental-readout: IC50

Solved cases below.
CN(Cc1cc2nc(-c3cccc4[nH]c(=O)[nH]c34)nc(N3CCOCC3)c2s1)c1ncc(C(=O)NO)cn1 [Compound 314] :: > 10000 nM
Nc1ccc(-c2nc(N3CCOCC3)c3sc(CN(CCO)c4ncc(C(=O)NO)cn4)cc3n2)cc1 [Compound 274] :: 100 to 1000 nM
CN(Cc1cc2nc(-c3cccc4c3CC(=O)N4)nc(N3CCOCC3)c2s1)c1ncc(C(=O)NO)cn1 [Compound 178] :: > 10000 nM

*Q* Report IC50 for CN(Cc1cc2nc(-c3cccnc3)nc(N3CCOCC3)c2s1)c1ncc(C(=O)NO)cn1 [Compound 109]
*A* 100 to 1000 nM

*Q* Report IC50 for CC(c1cc2nc(-c3cccc4[nH]ncc34)nc(N3CCOCC3)c2s1)N(C)c1ncc(C(=O)NO)cn1 (stereo not drawn) [Compound 70]
*A* 100 to 1000 nM

*Q* Report IC50 for Cc1ncc(-c2nc(N3CCOCC3)c3sc(CN(C)c4ncc(C(=O)NO)cn4)cc3n2)s1 [Compound 311]
*A* > 10000 nM

*Q* Report IC50 for CN(Cc1cc2nc(-c3ccc4[nH]c(C(F)(F)F)nc4c3)nc(N3CCOCC3)c2s1)c1ncc(C(=O)NO)cn1 [Compound 318]
*A* 100 to 1000 nM

*Q* Report IC50 for CN(Cc1cc2nc(-c3ccc(N)cc3)nc(N3CCOCC3)c2s1)c1ncc(C(=O)NO)cn1 [Compound 150]
*A* < 100 nM

*Q* Report IC50 for COc1ccc(-c2nc(N3CCOCC3)c3sc(CN(C)c4ncc(C(=O)NO)cn4)cc3n2)cn1 [Compound 236]
*A* 1000 to 10000 nM

*Q* Report IC50 for CN(Cc1cc2nc(-c3ccc4c(c3)NC(=O)CO4)nc(N3CCOCC3)c2s1)c1ncc(C(=O)NO)cn1 [Compound 183]
*A* > 10000 nM

*Q* Report IC50 for CCc1ncc(-c2nc(N3CCOCC3)c3sc(CN(C)c4ncc(C(=O)NO)cn4)cc3n2)cn1 [Compound 121]
*A* 1000 to 10000 nM

*Q* Report IC50 for Cn1cc(-c2nc(N3CCOCC3)c3sc(CN(CCO)c4ncc(C(=O)NO)cn4)cc3n2)cn1 [Compound 313]
*A* > 10000 nM

* * *

# reported IC50; entries follow
# Test system: HDACs (HeLa cell nuclear extracts)
# test-method-notes: HDAC enzymatic activity, Biomol Color de Lys system
# Assay type: biochemical
# particulars: 1 hour, 25° C.

CN(Cc1cc2nc(-c3ccc(N)cc3)nc(N3CCOCC3)c2s1)c1ccc(C(=O)NO)cc1 :: < 100 nM
O=C(/C=C/c1ccc(CNCc2cc3nc(-c4cccc5[nH]ncc45)nc(N4CCOCC4)c3s2)cc1)NO :: 100 to 1000 nM
CN(Cc1cc2nc(-c3ccc4[nH]c(C(F)(F)F)nc4c3)nc(N3CCOCC3)c2s1)c1ncc(C(=O)NO)cn1 :: < 100 nM

*Q* Report IC50 for CN(Cc1cc2nc(-c3ccc(N4CCCC4)cc3)nc(N3CCOCC3)c2s1)c1ncc(C(=O)NO)cn1
*A* < 100 nM

* * *

# reported melting point; entries follow

Solved cases below.
CN(Cc1cc2nc(-c3ccc(N)c([N+](=O)[O-])c3)nc(N3CCOCC3)c2s1)c1ncc(C(=O)NO)cn1 :: 202 to 206 °C
Nc1ccc(-c2nc(N3CCOCC3)c3sc(S(=O)(=O)Nc4ncc(C(=O)NO)cn4)cc3n2)cc1 :: 197 to 205 °C
CS(=O)(=O)N1CCN(Cc2cc3nc(-c4cccc5nn(CCCCCCC(=O)NO)cc45)nc(N4CCOCC4)c3s2)CC1 :: 123 to 126 °C

*Q* Report melting point for COc1ncc(-c2nc(N3CCOCC3)c3sc(C(C)N(C)c4ncc(C(=O)NO)cn4)cc3n2)cn1 (stereo not shown)
*A* 210 to 215 °C

* * *

# target-of-assay: PI3Kα (p110α/p85α) (Homo sapiens)
# Construct: GST (N)
# test-method-notes: PI3Kα ADP-Glo assay
# particulars: 20 μM PIP2, 10 μM ATP, 30 minutes
# Experimental: (A) an In Vitro Assay which Determines the Ability of a Test Compound to Inhibit PI3Kα. Activity of PI3Kα was measured using ADP-Glo assay from Promega. […] The ADP generated was then detected by ADP-Glo assay from Promega, a luminescent ADP detection assay. […] Second, the Kinase Detection Reagent is added to simultaneously convert ADP to ATP and allow the newly synthesized ATP to be measured using a luciferase/luciferin reaction.
pIC50: −log10 of the molar value.
# reported pIC50; entries follow

Solved cases below.
O=C(CCCCNCc1cc2nc(-c3cccc4[nH]ncc34)nc(N3CCOCC3)c2s1)NO :: 5.00 to 6.00
CN(Cc1cc2nc(-c3cccc4[nH]c(=S)[nH]c34)nc(N3CCOCC3)c2s1)c1ncc(C(=O)NO)cn1 :: > 7.00
Nc1ncc(-c2nc(N3CCOCC3)c3sc(NS(=O)(=O)c4cccc(/C=C/C(=O)NO)c4)cc3n2)cn1 :: > 7.00

*Q* Report pIC50 for CC(c1cc2nc(-c3cccc4[nH]ncc34)nc(N3CCOCC3)c2s1)N(C)c1ncc(C(=O)NO)cn1 (stereo not shown)
*A* > 7.00

*Q* Report pIC50 for CCCN(Cc1cc2nc(-c3cccc4[nH]ncc34)nc(N3CCOCC3)c2s1)c1ncc(C(=O)NO)cn1
*A* > 7.00

*Q* Report pIC50 for COc1cccc(Nc2nc(-c3cccc4[nH]ncc34)nc3cc(CN(C)c4ncc(C(=O)NO)cn4)sc23)c1
*A* < 5.00

*Q* Report pIC50 for CN(Cc1cc2nc(-c3cccc4[nH]ncc34)nc(Nc3ccccn3)c2s1)c1ncc(C(=O)NO)cn1
*A* 5.00 to 6.00

* * *

# reported IC50; entries follow
# System: HDACs (HeLa cell nuclear extracts)
# test-method-notes: HDAC enzymatic activity, Biomol Color de Lys system
# Format: biochemical
# particulars: 1 hour, 25° C.

Solved cases below.
CC(=O)Nc1ccc(-c2nc(N3CCOCC3)c3sc(CN(C)c4ncc(C(=O)NO)cn4)cc3n2)cc1 :: < 0.1 µM
CCN(CC)c1nc(-c2cccc3[nH]ncc23)nc2cc(CN(C)c3ncc(C(=O)NO)cn3)sc12 :: < 0.1 µM
CN(CCCCC(=O)NO)Cc1cc2nc(-c3cccc4[nH]ncc34)nc(N3CCOCC3)c2s1 :: 0.1 to 1 µM

*Q* Report IC50 for CCCc1nc2cc(/C=C/C(=O)NO)ccc2n1CCN(C)Cc1cc2nc(-c3ccc(N)cc3)nc(N3CCOCC3)c2s1
*A* 0.1 to 1 µM

*Q* Report IC50 for COc1ccc(-c2nc(N3CCOCC3)c3sc(Nc4ncc(C(=O)NO)cn4)cc3n2)cn1
*A* 0.1 to 1 µM

*Q* Report IC50 for CN(Cc1cc2nc(-c3cccc4[nH]ncc34)nc(N3CCNCC3)c2s1)c1ncc(C(=O)NO)cn1
*A* < 0.1 µM

*Q* Report IC50 for CN(Cc1cc2nc(-c3cccc4c3CCN4)nc(N3CCOCC3)c2s1)c1ncc(C(=O)NO)cn1
*A* < 0.1 µM
